Value source: patent US20160368943A1

Experiment: Pharmacokinetic study in rat
Format: in vivo, Sprague-Dawley rat
Conditions: male, Sprague-Dawley, plasma; SD rat, IV bolus, 1 mg/kg
measured.parameter: Tmax (min)

                              smiles_string  units_label  test_value
0  CC(C)N(C[C@H]1O[C@@H](n2cnc3c(N)ncnc32)[C@H](O)[C@@H]1O)[C@H]1C[C@@H](CCc2nc3cc(C(C)(C)C)ccc3[nH]2)C1          min           3

* * *

Test: Pharmacokinetic study in rat
Format: in vivo, Sprague-Dawley rat
Details: male, Sprague-Dawley, plasma; SD rat, IV infusion, 4.7 mg/kg/day for 7 days
measured.parameter: AUC(0-inf) (µM·h)

In [3]: df
Out[3]:
                              smiles_string  measured_parameter  test_value
0  CC(C)N(C[C@H]1O[C@@H](n2cnc3c(N)ncnc32)[C@H](O)[C@@H]1O)[C@H]1C[C@@H](CCc2nc3cc(C(C)(C)C)ccc3[nH]2)C1          AUC(0-inf)        12.5
